- TEST_SYSTEM: 15-hydroxyprostaglandin dehydrogenase [NAD(+)] (Homo sapiens, UniProt P15428)
- Sequence (P15428 whole entry): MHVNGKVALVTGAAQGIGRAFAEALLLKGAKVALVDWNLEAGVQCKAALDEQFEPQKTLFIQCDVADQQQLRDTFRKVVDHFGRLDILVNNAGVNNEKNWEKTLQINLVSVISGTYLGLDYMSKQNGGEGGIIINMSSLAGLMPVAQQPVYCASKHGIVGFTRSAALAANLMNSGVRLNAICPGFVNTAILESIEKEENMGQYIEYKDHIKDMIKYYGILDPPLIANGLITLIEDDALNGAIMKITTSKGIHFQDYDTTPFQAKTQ
pIC50: −log10 of the molar value.
VALUE_TYPE: pIC50

Guide cases for pIC50, answers given:
O=C1NC(=O)/C(=C/c2ccc(Oc3cccc(/C=C/[N+](=O)[O-])c3)c(Cl)c2)S1	7.23
O=C1NC(=O)/C(=C/c2ccc(Oc3cccc4c3CCCC4=O)c(Cl)c2)S1	7.15

1 = CCc1ccc(CCOc2ccc(/C=C3\SC(=O)NC3=O)cc2Cl)nc1
2 = C=C(C)C1CCC(COc2ccc(/C=C3\SC(=O)NC3=O)cc2Cl)CC1 (stereo not given)
Exercise: Consider 1 and 2 . Which of these has its pIC50 at a higher number? State your choice using its label.
Key: 2

###

- TEST_SYSTEM: 15-hydroxyprostaglandin dehydrogenase [NAD(+)] (Homo sapiens)
- Sequence (P15428 whole entry): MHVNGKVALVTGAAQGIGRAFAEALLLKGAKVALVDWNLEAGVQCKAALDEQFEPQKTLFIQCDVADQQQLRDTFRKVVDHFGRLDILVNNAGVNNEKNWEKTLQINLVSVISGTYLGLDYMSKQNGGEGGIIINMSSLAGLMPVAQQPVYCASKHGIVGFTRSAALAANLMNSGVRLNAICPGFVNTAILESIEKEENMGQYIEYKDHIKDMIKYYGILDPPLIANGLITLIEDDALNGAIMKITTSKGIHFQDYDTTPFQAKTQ
VALUE_TYPE: IC50 (nM)

Guide cases for IC50, answers given:
O=C1NC(=O)/C(=C/c2ccc(OCC3CCC3)c(Cl)c2)S1	9
O=C1NC(=O)/C(=C/c2ccc(Oc3cccc([N+](=O)[O-])c3)c(Cl)c2)S1	100
O=C1NC(=O)/C(=C/c2ccc(OC(=O)c3cccs3)c(Cl)c2)S1	264

a = O=C1NC(=O)/C(=C/c2ccc(OCCc3ccccn3)c(Cl)c2)S1
b = O=C1NC(=O)/C(=C/c2ccc(OCCC3CCCC3)cc2Cl)S1
c = O=C1NC(=O)/C(=C/c2ccc(OCCCCc3ccccc3)cc2Cl)S1
Exercise: Please put the entries in order of rising IC50. Answer with the labels in sequence, matching the requested order.
Key: b, c, a
(b: 42 nM, c: 81 nM, a: 4440 nM)

Reference source for all entries: ChEMBL document CHEMBL2413000
